B1: INTS3 (parent)
chain: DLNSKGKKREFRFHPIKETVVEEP

# Variants of: B1
# experiment.description: protein stability index of a GFP-peptide fusion (GPS, HEK-293T) (PSI 1-6); higher = more stable;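 note: lentivirally expressed fusions sorted by FACS into six bins by GFP to DsRed ratio, PSI derived from sequencing read proportions per bin multiplied by bin number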
# run.conditions: c terminus: a fixed tail appended
Ranges used to classify protein stability index: low bracket (below 2), middle bracket (2 to below 3), high bracket (3 or more)

Reference set, count: 6
| ordered.residues | group |
| --- | --- |
| DLNSKGKKRKFRFHPIKETVVEEP [E10K] | middle bracket |
| DLNSKGKKREFFFHPIKETVVEEP [R12F] | high bracket |
| DLNSKGKKREFEFHPIKETVVEEP [R12E] | high bracket |
| DLNSKGKKREFAFHPIKETVVEEP [R12A] | high bracket |
| DLNSKGKKREFRFHPIKETMVEEP [V20M] | middle bracket |
| DLNSKGKKREFRFHPIKETVVEYP [E23Y] | low bracket |

Hi there! Could you help me figure out the category for DLNSKGKKREFRFHPIKETQVEEP [V20Q] please?
middle bracket

Please answer likewise for DLNSKGKKREFRFHPIKETVVLEP [E22L]
low bracket

Please answer likewise for DLNSKGKKREFRVHPIKETVVEEP [F13V]
high bracket
